Molecular target: DRB01*04:04
Settings: chains peptide; modification not given
observation-type: IC50 (nM)
Numbers only, in nM.

Ask | // lookup IC50 for VILRGHLRIAGHHLGRCDIKDLP [SEQ ID NO 310]
Reply | 1910
